Target: SARM1 (50-724) (Homo sapiens)
Sequence (Q6SZW1 50-724): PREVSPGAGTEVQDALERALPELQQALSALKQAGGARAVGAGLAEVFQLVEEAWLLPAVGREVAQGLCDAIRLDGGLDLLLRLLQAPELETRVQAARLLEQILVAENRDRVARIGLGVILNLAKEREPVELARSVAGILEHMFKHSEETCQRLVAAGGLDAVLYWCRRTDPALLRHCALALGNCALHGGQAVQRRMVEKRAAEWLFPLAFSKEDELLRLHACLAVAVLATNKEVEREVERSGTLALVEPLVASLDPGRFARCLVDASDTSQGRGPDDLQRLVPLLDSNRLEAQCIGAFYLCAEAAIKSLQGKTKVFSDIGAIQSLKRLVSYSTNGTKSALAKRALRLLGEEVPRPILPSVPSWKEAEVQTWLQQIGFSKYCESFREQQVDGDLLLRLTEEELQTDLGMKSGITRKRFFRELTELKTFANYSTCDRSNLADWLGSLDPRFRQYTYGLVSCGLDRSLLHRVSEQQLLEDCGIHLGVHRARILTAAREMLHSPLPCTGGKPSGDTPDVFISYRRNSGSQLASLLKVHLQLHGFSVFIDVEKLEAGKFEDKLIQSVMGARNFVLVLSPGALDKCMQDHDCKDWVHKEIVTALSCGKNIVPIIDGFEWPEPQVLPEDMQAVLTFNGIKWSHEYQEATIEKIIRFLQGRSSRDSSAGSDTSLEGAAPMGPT
Test: biochemical
readout: IC50

Worked set:
CC[C@@H](C(N)=O)c1ccc(N[C@@H](C)c2nc(Cl)c(Cl)s2)cc1 (single isomer, unassigned) [Compound 302C] = 100 to 500 nM
O=C1NCCc2ccc(NS(=O)(=O)c3ccc(F)c(Cl)c3)cc21 [Example 9A] = > 1000 nM
CCC(Nc1ccc2nc[nH]c(=O)c2c1)c1cccc(Cl)c1Cl (racemic) [Example 146] = < 100 nM
Cc1c(F)cccc1S(=O)(=O)Nc1ccc2c(c1)C(=O)N(C)CC2 [Compound 21] = 100 to 500 nM
CC(Nc1ccc2nc[nH]c(=O)c2c1)c1c(Cl)ccc(F)c1Cl (single isomer, unassigned) [Example 201] = < 100 nM
O=S(=O)(Nc1ccc2ccncc2c1)c1cccc(Cl)c1Cl [Compound 43] = 100 to 500 nM

Asked: Provide the documented IC50 with SARM1 (50-724) (Homo sapiens) as the system for O=C1NCCCc2ccc(NS(=O)(=O)c3cccc(Cl)c3Cl)cc21 [Compound 41]
Given back: < 100 nM

Asked: Now consider Cc1c2ccc(NC(C)c3sc(Cl)nc3Cl)cc2nn1CC(N)=O (single isomer, unassigned) [Compound 347] .
Given back: < 100 nM
